Experiment: In vivo pharmacokinetics study in dogs
Design: species or system beagle dogs
Details: p.o. 2 mg/kg
measured.property: Cmax (nM)
Give the value, in units of nM, as a plain number.

Prompt line: Item FCCCN1CC[C@H](Nc2cnc(C3=C(CC(F)(F)F)CCCc4c3ccc3[nH]nc(F)c43)cn2)C1 [Compound 11A] has what recorded Cmax?
Response line: 495

====

Experiment: In vivo pharmacokinetic study in rats
Set-up: species or system male SD rats
Conditions: p.o. 2 mg/kg
Text: Experimental purposes: To test the drug concentration in plasma of rats at different times after intravenous and intragastric administration of the test compound by LC/MS/MS using male fasted SD rats as the experimental animals. To study the pharmacokinetics of the test compound in rats in vivo and evaluate their pharmacokinetic characteristics. […]
measured.property: Cmax (µM)
Give the value, in units of µM, as a plain number.

Prompt line: Query: Cmax; subject: FCCCN1CC[C@H](Nc2cnc(C3=C(CC(F)(F)F)CCCc4c3ccc3[nH]nc(F)c43)cn2)C1 [Compound 11A]
Response line: 0.0669
